Where do the numbers come from? From patent US12172983B2.

biological target: EGFR (L858R T790M C797S) (Homo sapiens, UniProt P00533, C797S/L858R/T790M); assay: Biochemical EGFR inhibition assay (Caliper mobility shift), EGFR LRTMCS mutant; conditions: inhibitory activity against EGFR LRTMCS mutant; apparent IC50; read-out: Ext Enz LRTMCS
Sequence (P00533 25-1210 T790M/C797S/L858R): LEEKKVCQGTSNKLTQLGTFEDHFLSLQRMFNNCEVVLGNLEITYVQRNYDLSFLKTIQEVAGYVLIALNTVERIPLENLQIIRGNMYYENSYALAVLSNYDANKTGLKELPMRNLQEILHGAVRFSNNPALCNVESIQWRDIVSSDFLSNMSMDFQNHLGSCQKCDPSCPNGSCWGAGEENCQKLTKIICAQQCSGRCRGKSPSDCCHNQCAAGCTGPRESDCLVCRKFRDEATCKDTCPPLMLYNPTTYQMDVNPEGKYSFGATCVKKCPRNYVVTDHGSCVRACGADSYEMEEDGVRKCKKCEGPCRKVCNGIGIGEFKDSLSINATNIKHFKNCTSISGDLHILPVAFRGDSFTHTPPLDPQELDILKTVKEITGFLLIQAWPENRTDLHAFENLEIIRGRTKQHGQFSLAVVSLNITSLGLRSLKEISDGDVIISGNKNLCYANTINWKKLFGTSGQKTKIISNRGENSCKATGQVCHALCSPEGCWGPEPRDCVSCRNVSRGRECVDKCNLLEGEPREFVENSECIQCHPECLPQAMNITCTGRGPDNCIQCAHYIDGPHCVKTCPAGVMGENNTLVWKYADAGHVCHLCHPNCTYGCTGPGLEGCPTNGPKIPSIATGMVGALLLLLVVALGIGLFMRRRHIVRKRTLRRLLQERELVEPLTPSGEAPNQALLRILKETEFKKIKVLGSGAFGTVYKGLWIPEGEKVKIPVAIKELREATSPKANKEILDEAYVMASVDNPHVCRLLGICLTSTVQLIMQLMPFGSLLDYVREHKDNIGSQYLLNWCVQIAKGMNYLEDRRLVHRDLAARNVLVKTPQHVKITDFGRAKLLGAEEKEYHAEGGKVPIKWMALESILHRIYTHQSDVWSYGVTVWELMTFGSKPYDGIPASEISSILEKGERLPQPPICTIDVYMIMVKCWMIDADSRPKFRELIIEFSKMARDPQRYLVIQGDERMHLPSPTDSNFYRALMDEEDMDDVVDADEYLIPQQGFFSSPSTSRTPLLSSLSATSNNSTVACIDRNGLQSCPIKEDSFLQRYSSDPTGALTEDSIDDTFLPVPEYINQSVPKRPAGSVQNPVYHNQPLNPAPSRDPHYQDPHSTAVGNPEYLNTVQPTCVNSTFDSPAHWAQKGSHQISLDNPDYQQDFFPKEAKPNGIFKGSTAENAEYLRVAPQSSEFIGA
IC50 overview

Example entries begin here.
compound="CO[C@@H]1CCN(c2nccc(Nc3cc4c(C(C)C)ccc(N5C[C@H](CS(C)(=O)=O)[C@H]5C)c4cn3)n2)C[C@H]1CO (single isomer, unassigned)" observable=IC50 test_value="≤ 15 nM"
compound="CN[C@H]1CCN(c2nccc(Nc3cc4c(C(C)C)ccc(N5C[C@H](CS(C)(=O)=O)[C@H]5C)c4cn3)n2)C[C@H]1F (single isomer, unassigned) [Compound 307]" observable=IC50 test_value="20.1 to 30 nM"

Please turn your attention to the following entry.
[Q] Enter recorded IC50 with EGFR (L858R T790M C797S) (Homo sapiens, UniProt P00533, C797S/L858R/T790M) for CC(C)c1ccc(N2CC(CS(C)(=O)=O)C2)c2cnc(Nc3ccnc(N4CC[C@H](O)[C@@H](C)C4)n3)cc12 (single isomer, unassigned) here.
[A] ≤ 15 nM

* * *

target: EGFR (L858R T790M C797S) (Homo sapiens, UniProt P00533, C797S/L858R/T790M); experiment: Biochemical EGFR inhibition assay (Caliper mobility shift), EGFR LRTMCS mutant; conditions: inhibitory activity against EGFR LRTMCS mutant; apparent IC50; read-out: Ext Enz LRTMCS
Catalogue of IC50 readings, one per entry.

Use the examples below as a reference point.
molecule="CC(C)c1ccc(N2C[C@H](CS(C)(=O)=O)[C@H]2C)c2cnc(Nc3ccnc(N4CC[C@](C)(O)C(F)(F)C4)n3)cc12 (single isomer, unassigned)" test_value="20.1 to 30 nM"
molecule=CO[C@@H]1CCN(c2nccc(Nc3cc4c(F)ccc(N5C[C@H](CS(C)(=O)=O)[C@H]5C)c4cn3)n2)C[C@@H]1F test_value="≤ 15 nM"
molecule="COC1CCN(c2nccc(Nc3cc4c(C(C)C)ccc(N5CC(CS(C)(=N)=O)C5)c4cn3)n2)CC1 (single isomer, unassigned)" test_value="≤ 15 nM"
molecule="[2H]C([2H])([2H])O[C@H]1[C@@H](O)CN(c2nccc(Nc3cc4c(C(C)C)ccc(N5C[C@H](CS(C)(=O)=O)[C@H]5C)c4cn3)n2)CC1(F)F (single isomer, unassigned) [Compound 313]" test_value="20.1 to 30 nM"
molecule="CC(C)c1ccc(N2C[C@H](CS(C)(=O)=O)[C@H]2C)c2cnc(Nc3ccnc(N4CC[C@H](O)C[C@@H]4C)n3)cc12 (single isomer, unassigned) [Compound 47]" test_value="15.1 to 20 nM"

[Q] Give measured IC50 for CC(C)c1ccc(N2C[C@@H](CS(C)(=O)=O)[C@@H]2C)c2cnc(Nc3ccnc(N4C[C@@H](F)[C@@H](O)C(C)(C)C4)n3)cc12 (single isomer, unassigned) (EGFR (L858R T790M C797S) (Homo sapiens, UniProt P00533, C797S/L858R/T790M)).
[A] 15.1 to 20 nM

[Q] Lab note: record IC50 of CCS(=O)(=O)CC1CN(c2ccc(C(C)C)c3cc(Nc4ccnc(N5CC[C@@H](OC)[C@@H](F)C5)n4)ncc23)C1 tested on EGFR (L858R T790M C797S) (Homo sapiens, UniProt P00533, C797S/L858R/T790M).
[A] ≤ 15 nM

[Q] Return reported IC50 for target or system EGFR (L858R T790M C797S) (Homo sapiens, UniProt P00533, C797S/L858R/T790M), item CC(C)c1ccc(N2C[C@H](CS(C)(=O)=O)[C@H]2C)c2cnc(Nc3ccnc(N4CC[C@H](O)C[C@H]4C)n3)cc12 (single isomer, unassigned) .
[A] ≤ 15 nM

[Q] Lab note: record IC50 of CCS(=O)(=O)C[C@H]1CN(c2ncc(C(C)C)c3cc(Nc4ccnc(N5CC[C@](C)(O)[C@H](F)C5)n4)ncc23)[C@@H]1C (single isomer, unassigned) tested on EGFR (L858R T790M C797S) (Homo sapiens, UniProt P00533, C797S/L858R/T790M).
[A] ≤ 15 nM
